# Experiment: Metabolic stability in human liver microsomes assessed as half life by HPLC analysis
# Assay type: ADME, Microsome
Endpoint Label: half-life (h)

Molecule Smiles: O=C(OC1=C(c2cccc3ncccc23)Oc2cc3ccccc3cc2-n2cccc21)C1CCNCC1
Endpoint Label: half-life
Meas Value: 1.52
--
Molecule Smiles: CN1CCN(C(=O)OC2=C(c3cccc4ncccc34)Oc3cc4ccccc4cc3-n3cccc32)CC1
Endpoint Label: half-life
Meas Value: 0.513

----------
# Measured Target: Nuclear factor NF-kappa-B complex (Homo sapiens) (UniProt Q00653+P19838+Q04206)
# Sequence (P19838 whole entry, looked up): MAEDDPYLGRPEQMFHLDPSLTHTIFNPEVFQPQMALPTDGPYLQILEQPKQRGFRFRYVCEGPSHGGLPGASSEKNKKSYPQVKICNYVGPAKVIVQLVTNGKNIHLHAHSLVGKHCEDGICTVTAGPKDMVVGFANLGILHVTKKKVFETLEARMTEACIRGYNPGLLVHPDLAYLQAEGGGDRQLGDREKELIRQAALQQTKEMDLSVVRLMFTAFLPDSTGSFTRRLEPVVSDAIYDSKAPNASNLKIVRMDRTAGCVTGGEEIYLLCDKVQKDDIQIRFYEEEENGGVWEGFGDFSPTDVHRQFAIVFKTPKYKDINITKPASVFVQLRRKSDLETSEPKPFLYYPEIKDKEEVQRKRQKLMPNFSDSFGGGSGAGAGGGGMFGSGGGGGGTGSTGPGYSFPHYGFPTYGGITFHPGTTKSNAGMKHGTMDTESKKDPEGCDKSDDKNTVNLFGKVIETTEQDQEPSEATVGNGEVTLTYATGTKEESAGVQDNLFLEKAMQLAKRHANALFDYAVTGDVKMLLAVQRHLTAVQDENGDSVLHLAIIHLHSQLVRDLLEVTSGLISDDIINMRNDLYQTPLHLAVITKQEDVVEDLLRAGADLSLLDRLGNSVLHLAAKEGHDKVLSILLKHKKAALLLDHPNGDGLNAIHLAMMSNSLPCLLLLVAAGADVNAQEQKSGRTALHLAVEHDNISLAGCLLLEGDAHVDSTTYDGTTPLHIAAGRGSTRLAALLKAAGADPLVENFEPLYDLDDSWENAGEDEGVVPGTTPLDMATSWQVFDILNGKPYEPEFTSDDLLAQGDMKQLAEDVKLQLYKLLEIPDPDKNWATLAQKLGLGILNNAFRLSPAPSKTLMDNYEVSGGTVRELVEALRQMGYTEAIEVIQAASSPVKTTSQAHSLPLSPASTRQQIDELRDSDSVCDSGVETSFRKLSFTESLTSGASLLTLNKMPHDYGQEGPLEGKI
# Sequence (Q00653 whole entry, looked up): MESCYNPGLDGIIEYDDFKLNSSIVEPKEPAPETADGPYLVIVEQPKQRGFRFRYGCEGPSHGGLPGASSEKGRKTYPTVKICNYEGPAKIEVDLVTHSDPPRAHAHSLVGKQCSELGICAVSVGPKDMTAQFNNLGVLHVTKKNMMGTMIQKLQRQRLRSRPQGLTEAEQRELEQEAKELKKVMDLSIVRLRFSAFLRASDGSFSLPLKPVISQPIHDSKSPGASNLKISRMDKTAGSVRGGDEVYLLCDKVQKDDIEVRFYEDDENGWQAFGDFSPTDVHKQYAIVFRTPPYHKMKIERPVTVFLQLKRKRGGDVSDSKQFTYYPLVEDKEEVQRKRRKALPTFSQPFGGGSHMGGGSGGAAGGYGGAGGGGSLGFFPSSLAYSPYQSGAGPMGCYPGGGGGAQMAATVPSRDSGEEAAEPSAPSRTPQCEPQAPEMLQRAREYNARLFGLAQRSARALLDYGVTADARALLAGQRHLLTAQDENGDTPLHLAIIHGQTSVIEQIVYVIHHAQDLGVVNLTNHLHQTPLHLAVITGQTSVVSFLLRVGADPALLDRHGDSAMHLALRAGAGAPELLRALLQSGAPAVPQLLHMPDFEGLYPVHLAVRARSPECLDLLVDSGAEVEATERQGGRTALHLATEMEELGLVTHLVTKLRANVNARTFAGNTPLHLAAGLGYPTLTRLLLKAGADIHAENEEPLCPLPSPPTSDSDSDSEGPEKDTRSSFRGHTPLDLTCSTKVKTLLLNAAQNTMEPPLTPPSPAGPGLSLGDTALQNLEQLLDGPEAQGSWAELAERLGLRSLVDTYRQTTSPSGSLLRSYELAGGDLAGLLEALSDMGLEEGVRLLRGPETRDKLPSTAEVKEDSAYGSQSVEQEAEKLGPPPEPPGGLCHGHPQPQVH
# Sequence (Q04206 whole entry, looked up): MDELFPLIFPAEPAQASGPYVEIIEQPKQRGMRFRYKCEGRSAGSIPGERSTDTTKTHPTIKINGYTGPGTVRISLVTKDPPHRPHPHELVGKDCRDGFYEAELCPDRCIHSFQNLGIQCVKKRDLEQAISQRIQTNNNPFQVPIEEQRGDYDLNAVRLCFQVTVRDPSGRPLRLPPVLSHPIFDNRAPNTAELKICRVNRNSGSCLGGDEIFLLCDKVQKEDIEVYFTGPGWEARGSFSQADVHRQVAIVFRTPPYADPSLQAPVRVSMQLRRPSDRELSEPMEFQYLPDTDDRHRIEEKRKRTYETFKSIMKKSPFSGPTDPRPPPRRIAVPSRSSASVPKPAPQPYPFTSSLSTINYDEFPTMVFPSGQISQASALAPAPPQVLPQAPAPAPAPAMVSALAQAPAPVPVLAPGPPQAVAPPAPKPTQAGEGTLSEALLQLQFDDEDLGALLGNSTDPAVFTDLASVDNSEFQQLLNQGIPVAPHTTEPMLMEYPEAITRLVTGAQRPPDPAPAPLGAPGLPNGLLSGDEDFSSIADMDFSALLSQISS
# Experiment: Inhibition of NF-kappaB phosphorylation in human HL-60 cells at 10 uM measured after 2 hrs by Immunoblotting analysis
# Assay type: cell-based
The source made the active and inactive calls. The calls are words filed in the database; no cut-off is given here.
Endpoint Label: inhibition

Molecule: CC(=O)OC1=C(c2cccc3ncccc23)Oc2cc3ccccc3cc2-n2cccc21
Measured Target: Nuclear factor NF-kappa-B complex (Homo sapiens) (UniProt Q00653+P19838+Q04206)
Endpoint Label: inhibition
Meas Value: Active

Molecule: CN1CCN(C(=O)OC2=C(c3cccc4ncccc34)Oc3cc4ccccc4cc3-n3cccc32)CC1
Measured Target: Nuclear factor NF-kappa-B complex (Homo sapiens) (UniProt Q00653+P19838+Q04206)
Endpoint Label: inhibition
Meas Value: Active

Molecule: CCN(CC)CCCC(C)NC(=O)OC1=C(c2cccc3ncccc23)Oc2cc3ccccc3cc2-n2cccc21 (racemic)
Measured Target: Nuclear factor NF-kappa-B complex (Homo sapiens) (UniProt Q00653+P19838+Q04206)
Endpoint Label: inhibition
Meas Value: Active

Molecule: O=C(OC1=C(c2cccc3ncccc23)Oc2cc3ccccc3cc2-n2cccc21)C1CCNCC1
Measured Target: Nuclear factor NF-kappa-B complex (Homo sapiens) (UniProt Q00653+P19838+Q04206)
Endpoint Label: inhibition
Meas Value: Active

Molecule: CC(=O)OC1=C(c2cccc3ccccc23)Oc2cc3ccccc3cc2-n2cccc21
Measured Target: Nuclear factor NF-kappa-B complex (Homo sapiens) (UniProt Q00653+P19838+Q04206)
Endpoint Label: inhibition
Meas Value: Active
